Provide the recorded Emax for the entries that follow.
Target: M2 muscarinic receptor (Homo sapiens)
Construct: expressed in transfected cells; host or cells: CHO (M2-CHO)
Sequence (P08172 whole entry): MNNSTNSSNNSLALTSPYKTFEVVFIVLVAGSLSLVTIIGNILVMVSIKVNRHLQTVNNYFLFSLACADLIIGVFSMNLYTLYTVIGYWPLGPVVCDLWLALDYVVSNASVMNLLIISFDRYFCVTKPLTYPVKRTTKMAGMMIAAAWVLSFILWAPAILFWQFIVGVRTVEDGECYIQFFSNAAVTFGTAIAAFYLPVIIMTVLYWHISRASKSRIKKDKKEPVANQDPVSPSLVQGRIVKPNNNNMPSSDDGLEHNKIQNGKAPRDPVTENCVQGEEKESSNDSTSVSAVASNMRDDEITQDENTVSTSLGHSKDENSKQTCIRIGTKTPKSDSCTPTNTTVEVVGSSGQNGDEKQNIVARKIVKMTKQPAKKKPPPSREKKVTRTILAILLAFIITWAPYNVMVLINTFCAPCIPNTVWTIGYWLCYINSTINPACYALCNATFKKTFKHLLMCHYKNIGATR
Experiment: Functional mobilization of intracellular calcium (FLIPR) in CHO cells expressing M2
Assay type: cell-based
Conditions: CHO; 100% = maximum response obtained with the Carbachol control; read-out: M2 Efficacy
Procedure: Functional Mobilization of Intracellular Calcium to Determine Muscarinic Receptor Activity: […] Compounds are prepared at a 2× fold concentration in a 96-well plate (round bottom, Costar Corning cat#3656), by reconstituting the pre-spotted compounds in bath 1 containing 1 mM probenecid. […] In both assay modes, the fluorescence is recorded for 60 sec (excitation wavelength is […] and emission wavelength 540 nm) using the FLIPR 3 instrument. […]

For the molecule CCOC(=O)N[C@H]1CCC2(CCN(CCC(C)(C)C)CC2)c2ccccc21 , report Emax.
25 to 100%

State its Emax: CC(C)(C)CCN1CCC2(CCCc3ccccc32)CC1
25 to 100%

Recall and state the measured Emax for CC(C)(C)CCN1CCC2(CC[C@H](NC(=O)CCOC(C)(C)C)c3ccccc32)CC1 .
25 to 100%

Report measured Emax; entry is Cn1cnc(C(=O)N[C@@H]2CCC3(CCN(CCC(C)(C)C)CC3)c3cc(F)ccc32)c1
25 to 100%

---

Would you mind telling me the reported Emax of each entry?
biological target: M3 muscarinic receptor (Homo sapiens, UniProt P20309); construct: expressed in transfected cells; host or cells: CHO (M3-CHO); assay: Functional mobilization of intracellular calcium (FLIPR) in CHO cells expressing M3; type: cell-based; conditions: CHO; 100% = maximum response obtained with the Carbachol control; read-out: M3 Efficacy
Sequence (P20309 whole entry): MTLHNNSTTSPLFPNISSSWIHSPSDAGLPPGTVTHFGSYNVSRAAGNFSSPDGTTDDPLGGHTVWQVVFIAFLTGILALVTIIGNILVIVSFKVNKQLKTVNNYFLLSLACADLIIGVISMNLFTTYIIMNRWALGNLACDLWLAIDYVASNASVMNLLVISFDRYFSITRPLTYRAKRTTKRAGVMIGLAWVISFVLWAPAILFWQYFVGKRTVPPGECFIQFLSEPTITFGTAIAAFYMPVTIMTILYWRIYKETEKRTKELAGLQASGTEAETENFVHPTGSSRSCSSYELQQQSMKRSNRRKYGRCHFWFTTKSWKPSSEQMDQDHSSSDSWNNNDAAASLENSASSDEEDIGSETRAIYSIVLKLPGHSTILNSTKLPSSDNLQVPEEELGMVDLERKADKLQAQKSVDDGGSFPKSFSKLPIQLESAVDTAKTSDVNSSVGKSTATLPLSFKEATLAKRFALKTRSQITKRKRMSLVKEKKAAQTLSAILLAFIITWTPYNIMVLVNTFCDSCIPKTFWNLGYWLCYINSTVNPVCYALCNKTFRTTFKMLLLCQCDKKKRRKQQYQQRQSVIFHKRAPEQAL

Return reported Emax for target or system M3 muscarinic receptor (Homo sapiens, UniProt P20309), item CC#CCN(C(C)=O)[C@H]1CCC2(CCN(CCC(C)C)CC2)c2ccccc21 [compound 141] .
< 25%

Please look at CC(C)CCN1CCC2(CC[C@H](NC(=O)C3CC3)c3ccccc32)CC1 [compound 125] and tell me its recorded Emax on M3 muscarinic receptor (Homo sapiens, UniProt P20309).
< 25%

Return reported Emax for target or system M3 muscarinic receptor (Homo sapiens, UniProt P20309), item C[C@H](C(=O)N[C@@H]1CCC2(CCN(CCC(C)(C)C)CC2)c2ccccc21)N1CCCC1=O [compound 157] .
< 25%

Check M3 muscarinic receptor (Homo sapiens, UniProt P20309) data and give Emax for CC(C)CCN1CCC2(CCCc3ccccc32)CC1 [compound 89] .
< 25%

Quote Emax with test system M3 muscarinic receptor (Homo sapiens, UniProt P20309) for CC(=O)N1CCCC(C(=O)N[C@@H]2CCC3(CCN(CCC(C)(C)C)CC3)c3ccccc32)C1 (some centres unmarked) [compound 143]
< 25%

Report value only: Emax, M3 muscarinic receptor (Homo sapiens, UniProt P20309), CCN(C(=O)c1cscn1)[C@H]1CCC2(CCN(CCC(C)(C)C)CC2)c2ccccc21 [compound 10]
< 25%

System M3 muscarinic receptor (Homo sapiens, UniProt P20309). Read-out Emax. Item C=CCCCN1CCC2(CC[C@H](NC(C)=O)c3ccccc32)CC1 [compound 172] . Report value.
< 25%

State measured Emax of the molecule C[C@H](C(=O)N[C@H]1CCC2(CCN(CCC(C)(C)C)CC2)c2ccccc21)N1CCCCC1=O [compound 38] with M3 muscarinic receptor (Homo sapiens, UniProt P20309).
< 25%

State Emax (M3 muscarinic receptor (Homo sapiens, UniProt P20309)) of CCN(C(=O)C1CCOC1)[C@H]1CCC2(CCN(CCC(C)(C)C)CC2)c2ccccc21 (some centres unmarked) [compound 9] .
< 25%

State measured Emax of the molecule CC(C)(C)CCN1CCC2(CC[C@H](NC(=O)C3CC(=O)N3)c3ccc(F)cc32)CC1 (some centres unmarked) [compound 67] with M3 muscarinic receptor (Homo sapiens, UniProt P20309).
< 25%

For M3 muscarinic receptor (Homo sapiens, UniProt P20309), give Emax of the listed molecule: CCC(=O)C1NCCC1C(=O)N[C@H]1CCC2(CCN(CCC(C)(C)C)CC2)c2cc(F)ccc21 (some centres unmarked) [compound 26]
< 25%

Please look at CCC(=O)N1CCCC(C(=O)N[C@@H]2CCC3(CCN(CCC(C)(C)C)CC3)c3ccccc32)C1 (some centres unmarked) [compound 13] and tell me its recorded Emax on M3 muscarinic receptor (Homo sapiens, UniProt P20309).
< 25%

Specify the recorded Emax for CN(C)C(=O)N(C)[C@H]1CCC2(CCN(CCC(C)(C)C)CC2)c2ccccc21 [compound 51] , system: M3 muscarinic receptor (Homo sapiens, UniProt P20309).
< 25%

# lookup: M3 muscarinic receptor (Homo sapiens, UniProt P20309) Emax, key = CC(C)(C)CCN1CCC2(CC[C@@H](N3CCCCC3=O)c3ccc(F)cc32)CC1 [compound 6]
< 25%

Provide measured Emax on M3 muscarinic receptor (Homo sapiens, UniProt P20309) for C[C@H](C(=O)N[C@@H]1CCC2(CCN(CCC(C)(C)C)CC2)c2ccccc21)N1CCCCC1=O [compound 113] please.
< 25%

GET Emax where system = M3 muscarinic receptor (Homo sapiens, UniProt P20309) and item = CCOC(=O)N[C@H]1CCC2(CCN(CCC(C)(C)C)CC2)c2ccccc21 [compound 12]
< 25%

Send back M3 muscarinic receptor (Homo sapiens, UniProt P20309) Emax of CCN(C(=O)CC(F)(F)F)[C@H]1CCC2(CCN(CCC(C)(C)C)CC2)c2ccccc21 [compound 183] only.
< 25%

State measured Emax of the molecule Cn1cnc(C(=O)N[C@H]2CCC3(CCN(CCC(C)(C)C)CC3)c3cc(F)ccc32)c1 [compound 165] with M3 muscarinic receptor (Homo sapiens, UniProt P20309).
< 25%

Specify Emax for CCCN1CCC2(CC[C@H](NC(C)=O)c3ccccc32)CC1 [compound 95] , system M3 muscarinic receptor (Homo sapiens, UniProt P20309).
< 25%

Report its Emax with M3 muscarinic receptor (Homo sapiens, UniProt P20309) as the test system: CC(C)(C)CCN1CCC2(CC1)CC(F)(F)C(O)c1ccccc12 (centres unmarked) [compound 120]
< 25%

Determine reported Emax for Cc1cc(C(=O)N[C@H]2CCC3(CCN(CCC(C)(C)C)CC3)c3ccccc32)nn1C [compound 151] ; test system: M3 muscarinic receptor (Homo sapiens, UniProt P20309).
< 25%

# return Emax for CCC(CC)N1CCC2(CC[C@H](NC(C)=O)c3ccccc32)CC1 [Compound No. 61] , test system: M3 muscarinic receptor (Homo sapiens, UniProt P20309)
< 25%

Fill in: Emax on M3 muscarinic receptor (Homo sapiens, UniProt P20309), entry CC(=O)N1CCCC(C(=O)N[C@H]2CCC3(CCN(CCC(C)(C)C)CC3)c3cc(F)ccc32)C1 (some centres unmarked) [compound 59]
< 25%

Under M3 muscarinic receptor (Homo sapiens, UniProt P20309): report Emax of CC(C)CCN1CCC2(CC[C@H](NS(C)(=O)=O)c3ccccc32)CC1 [compound 80] .
< 25%

Find the measured Emax of COCCC(=O)N[C@H]1CCC2(CCN(CCC(C)(C)C)CC2)c2ccccc21 [compound 147] with M3 muscarinic receptor (Homo sapiens, UniProt P20309) as test system.
< 25%

Supply Emax measured with M3 muscarinic receptor (Homo sapiens, UniProt P20309) for Cn1cnc(C(=O)N[C@H]2CCC3(CCN(CCC(C)(C)C)CC3)c3ccccc32)c1 [compound 98] .
< 25%

// fetch Emax for CC(=O)N(C)[C@H]1CCC2(CCN(CCC(C)C)CC2)c2ccccc21 [compound 184] ; system: M3 muscarinic receptor (Homo sapiens, UniProt P20309)
< 25%

Consider the molecule CC(=O)N[C@H]1CCC2(CCN(CC(C)C)CC2)c2ccccc21 [compound 104] tested on M3 muscarinic receptor (Homo sapiens, UniProt P20309); state its Emax.
< 25%

Fetch value of Emax on M3 muscarinic receptor (Homo sapiens, UniProt P20309) for CCOCCC(=O)N[C@@H]1CCC2(CCN(CCC(C)(C)C)CC2)c2ccccc21 [compound 21] .
< 25%

Look up M3 muscarinic receptor (Homo sapiens, UniProt P20309) data: Emax of Cn1cncc1C(=O)N[C@@H]1CCC2(CCN(CCC(C)(C)C)CC2)c2ccccc21 [compound 118] , then report it.
< 25%

Give Emax for CCN(C(C)=O)[C@H]1CCC2(CCN(CCC(C)(C)C)CC2)c2cc(F)ccc21 [compound 77] tested on M3 muscarinic receptor (Homo sapiens, UniProt P20309).
< 25%

Tell me Emax of CCN(C(=O)C1CCC(=O)C1)[C@H]1CCC2(CCN(CCC(C)(C)C)CC2)c2ccccc21 (some centres unmarked) [compound 44] when tested on M3 muscarinic receptor (Homo sapiens, UniProt P20309).
< 25%
